Provide the recorded switch fluorescence ratio for the entries that follow.
Test system: ATP;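 also: ATP exposure 15 min at 22 °C before imaging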
Test: switch fluorescence ratio, 500 uM ATP over buffer (Cy3 cluster intensity, sum of 5 cycles each) (fold (ratio)); higher = stronger signal-on switching upon ATP binding; sequences stand for … in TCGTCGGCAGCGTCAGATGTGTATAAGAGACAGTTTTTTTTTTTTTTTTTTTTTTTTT…TC
Settings: aptamer strand: ATP DNA aptamer (quencher-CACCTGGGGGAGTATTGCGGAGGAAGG + anchor), 100 nM annealed; ATP concentration: 500 uM
One number for each entry.

TCGGAGTTTA	1.04
TGAATCCGGG	1
AAGAGAGGGA	0.981

Below is a list of sequences. For each, state its recorded switch fluorescence ratio.
1. GGGAAGCATG
2. CCTGTAAGCT
3. GAAGCAAAGG
4. TTAAGGCATG
5. ATCATATATC

Result ::
[1.02, 1.3, 2.04, 0.997, 0.983]

Below is a list of sequences. For each, state its recorded switch fluorescence ratio.
1. CCTTTATTTA
2. AGTTGATCCC

Result ::
1: 0.986; 2: 1.02

====

Tested on: ATP;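 also: ATP exposure 15 min at 22 °C before imaging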
Assay: switch fluorescence ratio, 500 uM ATP over buffer (Cy3 cluster intensity, sum of 5 cycles each) (fold (ratio)); higher = stronger signal-on switching upon ATP binding; sequences stand for … in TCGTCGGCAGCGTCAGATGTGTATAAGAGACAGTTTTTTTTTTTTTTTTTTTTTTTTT…TC
Details: aptamer strand: ATP DNA aptamer (quencher-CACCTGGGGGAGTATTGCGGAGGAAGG + anchor), 100 nM annealed; ATP concentration: 500 uM
reported-property: switch fluorescence ratio

Field: example entries. Status: answers known.
GACACTATTG	0.999
AACGATTGGC	1.08
CTCTATATTG	1.01
TAGGGCGCCG	1.02

Below is a list of sequences. For each, state its recorded switch fluorescence ratio.
1. AAATCAAATT
2. GGGGTGATAT
3. CATTATGTGC
4. TTTGGGACGG
5. TAGCAATTAG
6. ATAAGTGATG

Result ::
1: 1.01; 2: 1.58; 3: 0.981; 4: 0.999; 5: 2.45; 6: 0.995

====

Provide the recorded switch fluorescence ratio for the entries that follow.
Tested on: ATP;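 also: ATP exposure 15 min at 22 °C before imaging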
Assay: switch fluorescence ratio, 500 uM ATP over buffer (Cy3 cluster intensity, sum of 5 cycles each) (fold (ratio)); higher = stronger signal-on switching upon ATP binding; sequences stand for … in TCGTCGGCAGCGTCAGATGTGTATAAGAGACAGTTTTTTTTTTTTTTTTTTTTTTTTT…TC
Details: aptamer strand: ATP DNA aptamer (quencher-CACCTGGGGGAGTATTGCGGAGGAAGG + anchor), 100 nM annealed; ATP concentration: 500 uM
Numbers only.

Field: example entries. Status: answers known.
AGGGTGTGAC	1.01
AGAGTTTGGG	0.988
TGAATATCTT	1.01

Below is a list of sequences. For each, state its recorded switch fluorescence ratio.
1. AAAGAGAGAA
2. GTAGGAGGGG
3. GTCATTGTAT
4. TTTGGTGAAC
5. GGGTTGCCGA
6. TTTTTTCCGC

Result ::
1
0.985
0.966
1
1.09
1.34

Below is a list of sequences. For each, state its recorded switch fluorescence ratio.
1. TTTGCAGCGC
2. AGGTAGTGTC
3. TGATCATACT
4. CTGGAATGTG
5. GATACTGGGT
6. ATCAGGGCGT
7. CGTGGTATTT
8. GGTGTGTGGG

Result ::
0.998
1.03
1.03
1
0.995
0.987
0.982
1.01
